Answer each item with its documented AUC(0-t).
# experimentalDetails: Plasma pharmacokinetics of co-administered DMT and DMT-d10 by intravenous (bolus), oral gavage and inhalation administration to male rats
# runParameters: male, Sprague Dawley, rat, plasma, po, 10 mg/kg, AUC0-1, plasma, 10 mg/kg (summary table)
Give bare numbers, in ng·h/mL.

- chemicalString: "CN(C)CCc1c[nH]c2ccccc12"
  AUC(0-t) [ng·h/mL]: 13.7

Attention now shifts to the item below.
// fetch AUC(0-t) given entry `[2H]C([2H])([2H])N(C([2H])([2H])[2H])C([2H])([2H])C([2H])([2H])c1c[nH]c2ccccc12`
8.78

* * *

Give measured half-life for each item. Keep answers brief.
# experimentalDetails: Plasma pharmacokinetics of co-administered DMT and DMT-d10 by intravenous (bolus), oral gavage and inhalation administration to male rats
# runParameters: male, Sprague Dawley, rat, plasma, iv, 1 mg/kg
Numbers only, in min.

- chemicalString: "CN(C)CCc1c[nH]c2ccccc12"
  testResult: 10.1

Proceeding to the next compound to report its half-life.
Look up and state reported half-life for `[2H]C([2H])([2H])N(C([2H])([2H])[2H])C([2H])([2H])C([2H])([2H])c1c[nH]c2ccccc12`
26.5

* * *

# experimentalDetails: Plasma pharmacokinetics of co-administered DMT and DMT-d10 by intravenous (bolus), oral gavage and inhalation administration to male rats
# runParameters: male, Sprague Dawley, rat, plasma, inhaled or intranasal, AUC0-1, plasma, Group 6 inhalation, DMT 15.3 mg/kg, DMT-d10 14.7 mg/kg
For each of the compounds below, state its AUC(0-t).
Numbers only, in ng·h/mL.

For the 2 compounds below, give their AUC(0-t) values.
1. [2H]C([2H])([2H])N(C([2H])([2H])[2H])C([2H])([2H])C([2H])([2H])c1c[nH]c2ccccc12
2. CN(C)CCc1c[nH]c2ccccc12

1. 267
2. 265

* * *

Give measured MRT last for each item. Keep answers brief.
# experimentalDetails: Plasma pharmacokinetics of co-administered DMT and DMT-d10 by intravenous (bolus), oral gavage and inhalation administration to male rats
# runParameters: male, Sprague Dawley, rat, plasma, iv, 1 mg/kg
One number for each entry, in min.

- chemicalString: "CN(C)CCc1c[nH]c2ccccc12"
  unitsOfMeasure: "min"
  MRT last: 13.6

// next entry
Look up MRT last of `[2H]C([2H])([2H])N(C([2H])([2H])[2H])C([2H])([2H])C([2H])([2H])c1c[nH]c2ccccc12` and report it.
20.9

* * *

# experimentalDetails: Plasma pharmacokinetics of co-administered DMT and DMT-d10 by intravenous (bolus), oral gavage and inhalation administration to male rats
# runParameters: male, Sprague Dawley, rat, plasma, iv, 1 mg/kg, AUC0-t, plasma, Group 4 IV bolus, 1 mg/kg, male rats
Kindly supply the reported AUC(0-t) values for the records listed here.
Show the value, then the unit it is measured in.

- chemicalString: "[2H]C([2H])([2H])N(C([2H])([2H])[2H])C([2H])([2H])C([2H])([2H])c1c[nH]c2ccccc12"
  testResult: "74.6 ng·h/mL"

In one line, give reported AUC(0-t) of the entry `CN(C)CCc1c[nH]c2ccccc12` .
113 ng·h/mL

* * *

What Kp was measured for each of the following?
# experimentalDetails: Brain pharmacokinetics and brain to plasma ratio after IV co-administration of DMT and DMT-d10 to male rats (Group 4)
# Format: in vivo, Sprague Dawley rats
# runParameters: male, Sprague Dawley, rat, brain / plasma; intravenous, 1 mg/kg; read-out: B/P (AUC0-1), brain to plasma ratio
# From the text: The pharmacokinetics and bioavailability of N,N-dimethyltryptamine (DMT) and 2-(1H-indol-3-yl)-N,N-bis(methyl-d3)ethan-1-amine-1,1,2,2-d4 (DMT-d10) were investigated in rats following intravenous (bolus), oral gavage (OG), and inhalation after co-dose administration. Sampling collection. […]
Numbers only.

- molecule: "[2H]C([2H])([2H])N(C([2H])([2H])[2H])C([2H])([2H])C([2H])([2H])c1c[nH]c2ccccc12 [DMT-d10]"
  Kp: 14

Please turn your attention to the following entry.
Give the measured Kp for CN(C)CCc1c[nH]c2ccccc12 [DMT, N,N-dimethyltryptamine]
9

* * *

# experimentalDetails: Plasma pharmacokinetics of co-administered DMT and DMT-d10 by intravenous (bolus), oral gavage and inhalation administration to male rats
# runParameters: male, Sprague Dawley, rat, plasma, po, 10 mg/kg
Please provide measured bioavailability for the entries that follow.
Give bare numbers, in %.

- chemicalString: "CN(C)CCc1c[nH]c2ccccc12"
  attributeMeasured: "bioavailability"
  unitsOfMeasure: "%"
  testResult: 1.2

Let me know recorded bioavailability for `[2H]C([2H])([2H])N(C([2H])([2H])[2H])C([2H])([2H])C([2H])([2H])c1c[nH]c2ccccc12` , thanks.
1.2

* * *

# experimentalDetails: Plasma pharmacokinetics of co-administered DMT and DMT-d10 by intravenous (bolus), oral gavage and inhalation administration to male rats
# runParameters: male, Sprague Dawley, rat, plasma, po, 10 mg/kg
attributeMeasured: MRT last
Provide a numeric answer, followed by its unit.

- chemicalString: "CN(C)CCc1c[nH]c2ccccc12"
  MRT last: "2.87 h"

Query compound follows.
Answer with reported MRT last of `[2H]C([2H])([2H])N(C([2H])([2H])[2H])C([2H])([2H])C([2H])([2H])c1c[nH]c2ccccc12`
3.69 h

* * *

# experimentalDetails: Brain pharmacokinetics and brain to plasma ratio after IV co-administration of DMT and DMT-d10 to male rats (Group 4)
# Format: in vivo, Sprague Dawley rats
# runParameters: male, Sprague Dawley, rat, 1 mg/kg; brain, Group 4 IV; calculated 0.25 to 1 hr
Field: half-life. Provide a value for each of the molecules that follow.
Answers are plain numbers, in min.

- molecule: "[2H]C([2H])([2H])N(C([2H])([2H])[2H])C([2H])([2H])C([2H])([2H])c1c[nH]c2ccccc12 [DMT-d10]"
  half-life (min): 33.9

Supply recorded half-life for CN(C)CCc1c[nH]c2ccccc12 [DMT, N,N-dimethyltryptamine] here.
9.3

* * *

# experimentalDetails: Plasma pharmacokinetics of co-administered DMT and DMT-d10 by intravenous (bolus), oral gavage and inhalation administration to male rats
# runParameters: male, Sprague Dawley, rat, plasma, iv, 1 mg/kg
attributeMeasured: Cmax (ng/mL)
Give bare numbers, in ng/mL.

- compound: "CN(C)CCc1c[nH]c2ccccc12 [DMT, N,N-dimethyltryptamine]"
  unitsOfMeasure: "ng/mL"
  testResult: 314

Tell me measured Cmax for [2H]C([2H])([2H])N(C([2H])([2H])[2H])C([2H])([2H])C([2H])([2H])c1c[nH]c2ccccc12 [DMT-d10] please.
148

* * *

Exercise: state measured AUC0-inf for each of the compounds provided.
# experimentalDetails: Plasma pharmacokinetics of co-administered DMT and DMT-d10 by intravenous (bolus), oral gavage and inhalation administration to male rats
# runParameters: male, Sprague Dawley, rat, plasma, iv, 1 mg/kg
Answers are plain numbers, in ng·h/mL.

- chemicalString: "[2H]C([2H])([2H])N(C([2H])([2H])[2H])C([2H])([2H])C([2H])([2H])c1c[nH]c2ccccc12"
  AUC0-inf [ng·h/mL]: 92.6

Please find the next compound below.
Consider the compound `CN(C)CCc1c[nH]c2ccccc12` . State its measured AUC0-inf.
115

* * *

Provide the reported bioavailability of each item.
# experimentalDetails: Plasma pharmacokinetics of co-administered DMT and DMT-d10 by intravenous (bolus), oral gavage and inhalation administration to male rats
# runParameters: male, Sprague Dawley, rat, plasma, inhaled
Give bare numbers, in %.

- chemicalString: "[2H]C([2H])([2H])N(C([2H])([2H])[2H])C([2H])([2H])C([2H])([2H])c1c[nH]c2ccccc12"
  unitsOfMeasure: "%"
  bioavailability: 24.3

Return bioavailability for the following compound: `CN(C)CCc1c[nH]c2ccccc12`
15.3

* * *

# experimentalDetails: Plasma pharmacokinetics of co-administered DMT and DMT-d10 by intravenous (bolus), oral gavage and inhalation administration to male rats
# runParameters: male, Sprague Dawley, rat, plasma, iv, 1 mg/kg, AUC0-1, plasma, Group 4 IV bolus, 1 mg/kg, male rats
Give measured AUC(0-t) for each item. Keep answers brief.
Give bare numbers, in ng·h/mL.

- chemicalString: "[2H]C([2H])([2H])N(C([2H])([2H])[2H])C([2H])([2H])C([2H])([2H])c1c[nH]c2ccccc12"
  attributeMeasured: "AUC(0-t)"
  testResult: 74.6

Now for a further compound.
State its AUC(0-t): `CN(C)CCc1c[nH]c2ccccc12`
113

* * *

# experimentalDetails: Plasma pharmacokinetics of co-administered DMT and DMT-d10 by intravenous (bolus), oral gavage and inhalation administration to male rats
# runParameters: male, Sprague Dawley, rat, plasma, inhaled or intranasal, AUC0-t, plasma, Group 6 inhalation, DMT 15.3 mg/kg, DMT-d10 14.7 mg/kg
Please go through the items and note down their AUC(0-t).
Numbers only, in ng·h/mL.

- chemicalString: "CN(C)CCc1c[nH]c2ccccc12"
  testResult: 300

Field: next compound
Give AUC(0-t) for `[2H]C([2H])([2H])N(C([2H])([2H])[2H])C([2H])([2H])C([2H])([2H])c1c[nH]c2ccccc12`
361
